Each recorded value in this set is attributed to ChEMBL document CHEMBL3352763.

Target: Carbonic anhydrase 1 (Homo sapiens)
Sequence (P00915 whole entry): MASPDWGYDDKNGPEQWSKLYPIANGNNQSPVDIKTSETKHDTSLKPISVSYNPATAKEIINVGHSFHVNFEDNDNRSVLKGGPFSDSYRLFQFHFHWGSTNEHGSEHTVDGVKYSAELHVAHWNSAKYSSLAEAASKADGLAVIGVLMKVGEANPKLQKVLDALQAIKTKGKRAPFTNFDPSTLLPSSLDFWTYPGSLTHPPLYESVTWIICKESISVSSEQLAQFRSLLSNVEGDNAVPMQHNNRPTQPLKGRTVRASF
Assay: Inhibition of recombinant human carbonic anhydrase 1 after 15 mins by stopped flow CO2 hydration assay
pKi: −log10 of the molar value.
valueKind: pKi

The reported pKi value, Carbonic anhydrase 1 (Homo sapiens), for CCCN(CCC)S(=O)(=O)c1ccc(C(=O)O)cc1 [PROBENECID] reads < 5.00

###

Target: UniProtKB Q16790
Test: Inhibition of recombinant human carbonic anhydrase 9 after 15 mins by stopped flow CO2 hydration assay
valueKind: pKi
# pKi = -log10(concentration in molar units)

- molecule: "CCCN(CCC)S(=O)(=O)c1ccc(C(=O)NC2CCCCC2C)cc1 (stereo unspecified)"
  pKi: 6.59

Notebook: CCCN(CCC)S(=O)(=O)c1ccc(C(=O)Nc2ccc(Cl)cc2)cc1 , pKi read as 6.61

Notebook: CCCN(CCC)S(=O)(=O)c1ccc(C(=O)Nc2ccccn2)cc1 , pKi read as 6.64

Notebook: CCCN(CCC)S(=O)(=O)c1ccc(C(=O)Nc2ccccc2)cc1 , pKi read as 6.77

Notebook: CCCN(CCC)S(=O)(=O)c1ccc(C(=O)Nc2nncs2)cc1 , pKi read as 6.67

Notebook: CCCN(CCC)S(=O)(=O)c1ccc(C(=O)Nc2ccccc2N)cc1 , pKi read as 6.65
